Hey, just so you know, these numbers are from ChEMBL document CHEMBL1131448.

- Test system: DNA topoisomerase 1 (Bos taurus)
- Assay Procedure: Effect on Topo-I-mediated relaxation of supercoiled pUC19 plasmid DNA in calf thymus at 100 uM
One threshold, 50%, splits the recorded Relaxed DNA values: lower ones are 1, equal or higher ones are -1.

molecule="CCC1(O)CC(=O)OCc2c1cc1n(c2=O)Cc2cc3cc(F)c(Cl)cc3nc2-1 (stereo not drawn)" class_name=-1

Exam item: Would you kindly verify if Relaxed DNA of "CC[C@@]1(O)CC(=O)OCc2c1cc1n(c2=O)Cc2cc3ccccc3nc2-1" is strictly less than 50%?
Marked response: 1

Exam item: Would you kindly verify if Relaxed DNA of CCC1(O)CC(=O)OCc2c1cc1n(c2=O)Cc2cc3cc(OC)c(F)cc3nc2-1 (stereo not drawn) is strictly less than 50%?
Marked response: 1

Exam item: Would you kindly verify if Relaxed DNA of CCC1(O)CC(=O)OCc2c1cc1n(c2=O)Cc2cc3cc(F)c(F)cc3nc2-1 (stereo not drawn) is strictly less than 50%?
Marked response: -1

Exam item: Would you kindly verify if Relaxed DNA of CCC1(O)CC(=O)OCc2c1cc1n(c2=O)Cc2cc3cc(Cl)ccc3nc2-1 (stereo not drawn) is strictly less than 50%?
Marked response: -1

Exam item: Would you kindly verify if Relaxed DNA of "CC[C@]1(O)CC(=O)OCc2c1cc1n(c2=O)Cc2cc3ccccc3nc2-1" is strictly less than 50%?
Marked response: -1

Exam item: Would you kindly verify if Relaxed DNA of CCC1(O)CC(=O)OCc2c1cc1n(c2=O)Cc2cc3cc4c(cc3nc2-1)OCO4 (stereo not drawn) is strictly less than 50%?
Marked response: -1

Exam item: Would you kindly verify if Relaxed DNA of CCC1(O)CC(=O)OCc2c1cc1n(c2=O)Cc2cc3cc(F)ccc3nc2-1 (stereo not drawn) is strictly less than 50%?
Marked response: 1

Exam item: Would you kindly verify if Relaxed DNA of CCC1(O)CC(=O)OCc2c1cc1n(c2=O)Cc2cc3cc(C)c(Cl)cc3nc2-1 (stereo not drawn) is strictly less than 50%?
Marked response: -1

Exam item: Would you kindly verify if Relaxed DNA of CCC1(O)CC(=O)OCc2c1cc1n(c2=O)Cc2cc3cc(C)c(F)cc3nc2-1 (stereo not drawn) is strictly less than 50%?
Marked response: 1

Exam item: Would you kindly verify if Relaxed DNA of CCC1(O)CC(=O)OCc2c1cc1n(c2=O)Cc2cc3ccccc3nc2-1 (stereo not drawn) is strictly less than 50%?
Marked response: -1

Exam item: Would you kindly verify if Relaxed DNA of CCc1c2c(nc3ccccc13)-c1cc3c(c(=O)n1C2)COC(=O)CC3(O)CC (stereo not drawn) is strictly less than 50%?
Marked response: 1
